- target.system: POU2 (OCT2 POU domain) (human, UniProt P09086 175-386)
- Sequence: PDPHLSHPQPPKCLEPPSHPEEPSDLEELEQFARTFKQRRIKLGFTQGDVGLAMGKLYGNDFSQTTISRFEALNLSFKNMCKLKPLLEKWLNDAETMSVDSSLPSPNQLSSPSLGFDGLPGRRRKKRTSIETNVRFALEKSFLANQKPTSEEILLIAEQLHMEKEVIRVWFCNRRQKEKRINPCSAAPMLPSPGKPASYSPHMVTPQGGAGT
- protocol: EMSA-SELEX-seq; no BOB1; 20 mM Tris-HCl pH 7.6, 140 mM NaCl, 10% glycerol, 0.5 mM EDTA, 0.05% Triton X-100, 0.1 mg/mL BSA, 0.1 mg/mL poly(dI-dC), 5 mM DTT, room temperature, 20 min; high values mean tight binding
- experimental.setup: protein: recombinant; dsDNA, one strand shown
outcome.measure: binding signal

Previously resolved entries follow.
- sequence.data: "ATTGCAAG"
  binding signal: "0.0397 % of ANNNNAAN 8-mers"
- sequence.data: "AGGTTAAA"
  binding signal: "0.0731 % of ANNNNAAN 8-mers"
- sequence.data: "ATGTTAAT"
  binding signal: "1.31 % of ANNNNAAN 8-mers"
- sequence.data: "ACCACAAG"
  binding signal: "0.0178 % of ANNNNAAN 8-mers"

Look at each sequence and report its binding signal.
1. ACCAGAAC
2. AGATTAAT
3. AACCCAAA
4. AGACGAAC

1. 0.0127 % of ANNNNAAN 8-mers
2. 0.207 % of ANNNNAAN 8-mers
3. 0.0173 % of ANNNNAAN 8-mers
4. 0.0236 % of ANNNNAAN 8-mers

###

- target.system: POU1 (OCT1 POU domain) (human, UniProt P14859 260-458)
- Sequence (P14859 260-458): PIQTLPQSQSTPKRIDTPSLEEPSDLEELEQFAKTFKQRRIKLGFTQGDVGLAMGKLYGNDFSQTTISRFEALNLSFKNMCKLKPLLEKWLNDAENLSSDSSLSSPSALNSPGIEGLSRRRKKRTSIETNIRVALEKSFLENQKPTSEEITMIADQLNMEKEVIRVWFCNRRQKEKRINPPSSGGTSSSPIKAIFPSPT
- protocol: EMSA-SELEX-seq; no BOB1; 20 mM Tris-HCl pH 7.6, 140 mM NaCl, 10% glycerol, 0.5 mM EDTA, 0.05% Triton X-100, 0.1 mg/mL BSA, 0.1 mg/mL poly(dI-dC), 5 mM DTT, room temperature, 20 min; high values mean tight binding
- experimental.setup: protein: recombinant; dsDNA, one strand shown
outcome.measure: binding signal

- sequence.data: "AACCAAAG"
  meas.value: "0.0336 % of ANNNNAAN 8-mers"
- sequence.data: "AAGCAAAA"
  meas.value: "0.142 % of ANNNNAAN 8-mers"
- sequence.data: "AGAGAAAG"
  meas.value: "0.0442 % of ANNNNAAN 8-mers"
- sequence.data: "ACCACAAG"
  meas.value: "0.0114 % of ANNNNAAN 8-mers"
- sequence.data: "ACTTCAAT"
  meas.value: "0.0256 % of ANNNNAAN 8-mers"

Look at each sequence and report its binding signal.
1. AAACGAAA
2. AAGGGAAC
3. AGACCAAG
4. ACTCCAAC
5. ATTTGAAT
6. AGCCGAAT

1. 0.0568 % of ANNNNAAN 8-mers
2. 0.0389 % of ANNNNAAN 8-mers
3. 0.0137 % of ANNNNAAN 8-mers
4. 0.0126 % of ANNNNAAN 8-mers
5. 1.84 % of ANNNNAAN 8-mers
6. 0.0313 % of ANNNNAAN 8-mers

###

Can you tell me binding signal for the items I'm about to list?
- target.system: POU2 (OCT2 POU domain) (human, UniProt P09086 175-386)
- Sequence: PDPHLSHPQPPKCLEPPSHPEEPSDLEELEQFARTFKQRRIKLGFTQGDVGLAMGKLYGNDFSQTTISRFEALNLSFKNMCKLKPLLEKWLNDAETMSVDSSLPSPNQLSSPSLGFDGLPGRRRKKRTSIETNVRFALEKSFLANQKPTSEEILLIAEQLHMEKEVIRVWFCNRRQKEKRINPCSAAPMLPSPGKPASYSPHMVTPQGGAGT
- protocol: EMSA-SELEX-seq; no BOB1; 20 mM Tris-HCl pH 7.6, 140 mM NaCl, 10% glycerol, 0.5 mM EDTA, 0.05% Triton X-100, 0.1 mg/mL BSA, 0.1 mg/mL poly(dI-dC), 5 mM DTT, room temperature, 20 min; high values mean tight binding
- experimental.setup: protein: recombinant; dsDNA, one strand shown

Previously resolved entries follow.
- sequence.data: "ATGTAAAC"
  meas.value: "0.196 % of ANNNNAAN 8-mers"
- sequence.data: "ATTTAAAA"
  meas.value: "0.299 % of ANNNNAAN 8-mers"
- sequence.data: "ACTGCAAG"
  meas.value: "0.0144 % of ANNNNAAN 8-mers"
- sequence.data: "AGCTGAAA"
  meas.value: "0.0293 % of ANNNNAAN 8-mers"
- sequence.data: "AAAGTAAC"
  meas.value: "0.0437 % of ANNNNAAN 8-mers"

Look at each sequence and report its binding signal.
1. ACGAAAAG
2. ATGGCAAT
3. ATCTGAAC
4. ATCGAAAC
5. ATCCCAAG
6. ACTATAAA
7. AGTCAAAT
8. ATATAAAA

0.0368 % of ANNNNAAN 8-mers
0.0719 % of ANNNNAAN 8-mers
0.0265 % of ANNNNAAN 8-mers
0.0236 % of ANNNNAAN 8-mers
0.0167 % of ANNNNAAN 8-mers
0.0403 % of ANNNNAAN 8-mers
0.367 % of ANNNNAAN 8-mers
0.102 % of ANNNNAAN 8-mers

Look at each sequence and report its binding signal.
1. AATTTAAG
2. AGGAGAAG
3. ATTATAAC
4. ACTTCAAA
5. ACATTAAC
6. AGAGTAAC

0.142 % of ANNNNAAN 8-mers
0.0472 % of ANNNNAAN 8-mers
0.113 % of ANNNNAAN 8-mers
0.0322 % of ANNNNAAN 8-mers
0.115 % of ANNNNAAN 8-mers
0.0322 % of ANNNNAAN 8-mers

Look at each sequence and report its binding signal.
1. ATAATAAA
2. ATCCCAAC
3. ATGTCAAT
4. AGAAGAAA

1. 0.251 % of ANNNNAAN 8-mers
2. 0.0213 % of ANNNNAAN 8-mers
3. 0.0869 % of ANNNNAAN 8-mers
4. 0.0685 % of ANNNNAAN 8-mers

###

- target.system: POU1 (OCT1 POU domain);BOB1 (OBF1, OCA-B) (human;human, UniProt P14859;Q16633 260-458;1-256, |)
- Sequence (P14859 260-458, chain 1 of 2): as the sequence (P14859 260-458) above
- Sequence (Q16633 whole entry, chain 2 of 2, the tested form may be a part): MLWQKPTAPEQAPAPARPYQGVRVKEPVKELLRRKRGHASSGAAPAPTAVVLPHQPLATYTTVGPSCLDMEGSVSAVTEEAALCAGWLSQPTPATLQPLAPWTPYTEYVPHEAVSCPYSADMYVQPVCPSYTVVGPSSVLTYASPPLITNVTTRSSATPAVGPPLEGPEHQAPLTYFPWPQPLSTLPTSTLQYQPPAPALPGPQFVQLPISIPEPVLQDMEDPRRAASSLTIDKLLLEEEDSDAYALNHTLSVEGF
- protocol: EMSA-SELEX-seq; with BOB1 (ternary complex band); 20 mM Tris-HCl pH 7.6, 140 mM NaCl, 10% glycerol, 0.5 mM EDTA, 0.05% Triton X-100, 0.1 mg/mL BSA, 0.1 mg/mL poly(dI-dC), 5 mM DTT, room temperature, 20 min; high values mean tight binding
- experimental.setup: protein: recombinant;recombinant; copies: 1;1; dsDNA, one strand shown
Can you tell me binding signal for the items I'm about to list?

Previously resolved entries follow.
- sequence.data: "ACGTGAAC"
  binding signal: "0.0215 % of ANNNNAAN 8-mers"
- sequence.data: "ACCATAAT"
  binding signal: "0.0367 % of ANNNNAAN 8-mers"
- sequence.data: "AGATGAAT"
  binding signal: "0.0765 % of ANNNNAAN 8-mers"
- sequence.data: "AGGGCAAG"
  binding signal: "0.0332 % of ANNNNAAN 8-mers"
- sequence.data: "ACGCTAAC"
  binding signal: "0.0133 % of ANNNNAAN 8-mers"

Look at each sequence and report its binding signal.
1. ACAGGAAA
2. ATGTCAAA
3. ACTAAAAA
4. ATCCGAAA
5. AGTCTAAA
6. AAGACAAA
7. AACCAAAT
8. AGCAAAAA

["0.0702 % of ANNNNAAN 8-mers", "0.0745 % of ANNNNAAN 8-mers", "0.0468 % of ANNNNAAN 8-mers", "0.0308 % of ANNNNAAN 8-mers", "0.0398 % of ANNNNAAN 8-mers", "0.0706 % of ANNNNAAN 8-mers", "0.257 % of ANNNNAAN 8-mers", "0.11 % of ANNNNAAN 8-mers"]

Look at each sequence and report its binding signal.
1. AACACAAG
2. ACTAGAAT
3. AACAAAAT

0.0219 % of ANNNNAAN 8-mers
0.0589 % of ANNNNAAN 8-mers
0.14 % of ANNNNAAN 8-mers

Look at each sequence and report its binding signal.
1. ATAGAAAG
2. ATTGTAAT
3. AGAGGAAC
4. ATGTGAAA
5. ATCCGAAT
6. ATATTAAG
7. AGCTAAAA
8. AAACCAAG

1: 0.0546 % of ANNNNAAN 8-mers; 2: 0.116 % of ANNNNAAN 8-mers; 3: 0.0234 % of ANNNNAAN 8-mers; 4: 0.0687 % of ANNNNAAN 8-mers; 5: 0.0496 % of ANNNNAAN 8-mers; 6: 0.0882 % of ANNNNAAN 8-mers; 7: 0.0425 % of ANNNNAAN 8-mers; 8: 0.0293 % of ANNNNAAN 8-mers

Look at each sequence and report its binding signal.
1. ATGTCAAG
2. ACGGCAAT
3. AGCCTAAG
4. ACTGGAAA
5. ATTGGAAT
6. AATTTAAA
7. ACTGAAAT

1: 0.0406 % of ANNNNAAN 8-mers; 2: 0.0336 % of ANNNNAAN 8-mers; 3: 0.0219 % of ANNNNAAN 8-mers; 4: 0.0375 % of ANNNNAAN 8-mers; 5: 0.0968 % of ANNNNAAN 8-mers; 6: 0.303 % of ANNNNAAN 8-mers; 7: 0.0472 % of ANNNNAAN 8-mers
